- target.under.test: Nuclear receptor subfamily 5 group A member 2 (Homo sapiens, UniProt O00482);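 further: HEK293T cells transfected with LRH-1 and a StAR promoter luciferase reporter; potency for inhibitors that lower LRH-1 driven reporter light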
- Sequence (O00482 whole entry): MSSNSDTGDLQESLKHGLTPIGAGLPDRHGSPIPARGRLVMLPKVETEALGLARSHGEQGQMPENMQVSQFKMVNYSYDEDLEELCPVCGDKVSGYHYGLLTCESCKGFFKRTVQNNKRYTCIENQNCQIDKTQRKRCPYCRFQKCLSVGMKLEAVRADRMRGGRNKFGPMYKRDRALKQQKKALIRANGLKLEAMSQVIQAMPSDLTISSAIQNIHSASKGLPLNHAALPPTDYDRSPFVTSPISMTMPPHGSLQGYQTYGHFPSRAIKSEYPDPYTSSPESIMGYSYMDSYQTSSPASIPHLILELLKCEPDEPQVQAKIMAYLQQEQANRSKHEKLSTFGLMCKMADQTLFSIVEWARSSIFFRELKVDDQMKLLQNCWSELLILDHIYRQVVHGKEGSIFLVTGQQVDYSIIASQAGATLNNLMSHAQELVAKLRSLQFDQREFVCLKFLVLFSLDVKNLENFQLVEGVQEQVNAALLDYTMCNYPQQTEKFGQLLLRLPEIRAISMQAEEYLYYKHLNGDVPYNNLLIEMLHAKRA
- Format: functional, cell-based
Calls of active or inactive are those of the source.
Labels: active, inactive

| compound | label |
| --- | --- |
| Nc1ccc(C(=O)NN2C(=O)[C@H](Cl)C2c2ccc(Cl)cc2)cc1 (stereo not given in full) | inactive |
| CCc1cc(=O)oc2c(C)c(OCC(=O)NC3CC(C)(C)NC(C)(C)C3)ccc12 | inactive |
| Cc1ccccc1Nc1nc(-c2cccnc2)nc2ccccc12 | inactive |
| CCc1cc(=O)oc2cc(C)cc(OCC(=O)NC3CC3)c12 | active |
| CCCc1cc(=O)oc2cc(C)cc(OCC(=O)Nc3ccccn3)c12 | active |

Cited source: ChEMBL document CHEMBL1201862
